B1: Pistol ribozyme (parent)
chain: GGGUCGUUGUUCCAUAAUCGCGUGGAUAUGGCACGCAAGUUUCUACCGGGCACCGUAAAUGUCCGACUGGAGCCGUUCGGGCGGCUAUAAACAGACCUCAGGCCCGAAGCGUGGCGGCACCUGCCGCCGGUGGUAAAAAAGAUCGGAAGAGCACACGUCU

Variants of: B1
Assay: aptazyme ON/OFF ratio, guanine; higher = stronger switching; co-transcriptional cleavage with and without guanine
Entries and their measured aptazyme ON/OFF ratio follow.
Attribute Measured: aptazyme ON/OFF ratio

[
  {
    "Variant Spec": "U8C U10A U11A C13U",
    "Observed Value": 1.21
  },
  {
    "Variant Spec": "U7G U8G G9U U10C U11G C12U C13A",
    "Observed Value": 1.23
  },
  {
    "Variant Spec": "U7C U8G G9A U10A U11C C12A C13G",
    "Observed Value": 1.15
  },
  {
    "Variant Spec": "U7A U8A U10G U11C C12A",
    "Observed Value": 1.61
  },
  {
    "Variant Spec": "U7G U8A G9C U11C C12U C13U",
    "Observed Value": 1.03
  },
  {
    "Variant Spec": "U8C G9C U10G U11G C12G",
    "Observed Value": 1.13
  },
  {
    "Variant Spec": "U8G G9C U10C U11C C13A",
    "Observed Value": 1.06
  },
  {
    "Variant Spec": "U7G U8A G9C U10A U11C C12U C13G",
    "Observed Value": 1.06
  },
  {
    "Variant Spec": "U7C U8C G9A C12G C13G",
    "Observed Value": 1.28
  },
  {
    "Variant Spec": "U8C G9C U10A U11G C13U",
    "Observed Value": 1.13
  },
  {
    "Variant Spec": "U7A U8G U10C C13A",
    "Observed Value": 1.45
  },
  {
    "Variant Spec": "U8A G9U U10G C12G C13G",
    "Observed Value": 1.15
  },
  {
    "Variant Spec": "U7G U11G C12U",
    "Observed Value": 1.2
  },
  {
    "Variant Spec": "U7G U8G G9C U10G U11C C12U",
    "Observed Value": 1.04
  },
  {
    "Variant Spec": "U7G U8C G9C U10A U11G C12U C13G",
    "Observed Value": 1.24
  },
  {
    "Variant Spec": "U7G U8G U10A C12A C13A",
    "Observed Value": 1.18
  },
  {
    "Variant Spec": "U8C G9A U11G C13G",
    "Observed Value": 1.27
  },
  {
    "Variant Spec": "U7C U8G G9C C13A",
    "Observed Value": 1.06
  },
  {
    "Variant Spec": "U7C U8C G9U U10C U11G C13U",
    "Observed Value": 1.29
  },
  {
    "Variant Spec": "U7A U8G G9C U11C C12A",
    "Observed Value": 2.15
  },
  {
    "Variant Spec": "U7C U8C U10C C12U C13G",
    "Observed Value": 1.34
  },
  {
    "Variant Spec": "U7C U8G U10A U11G C12A",
    "Observed Value": 1.11
  },
  {
    "Variant Spec": "U7G U8G U10A U11A C12U C13A",
    "Observed Value": 1.44
  },
  {
    "Variant Spec": "U7G G9U U10A U11C C12U C13A",
    "Observed Value": 1.39
  },
  {
    "Variant Spec": "U7G U8A G9U U10A U11G",
    "Observed Value": 1.09
  },
  {
    "Variant Spec": "U7C U8C U10C C12U",
    "Observed Value": 1.36
  },
  {
    "Variant Spec": "U7A U8C G9C U10C U11G C12U",
    "Observed Value": 1.06
  },
  {
    "Variant Spec": "U7A U10G C12G C13A",
    "Observed Value": 1.08
  },
  {
    "Variant Spec": "U7C U8C G9A U11A C12A C13G",
    "Observed Value": 1.18
  },
  {
    "Variant Spec": "U7C U8G G9A U10G U11G C13A",
    "Observed Value": 1.2
  },
  {
    "Variant Spec": "U7C U8G G9U U10C C12U C13A",
    "Observed Value": 1.38
  },
  {
    "Variant Spec": "U7G G9A U10A C13G",
    "Observed Value": 1.06
  },
  {
    "Variant Spec": "U7A G9U U11C C12A",
    "Observed Value": 1.34
  },
  {
    "Variant Spec": "U7G U8G U10A U11A C12A C13U",
    "Observed Value": 1.21
  },
  {
    "Variant Spec": "U7A U8G G9C U11G C13G",
    "Observed Value": 1.22
  },
  {
    "Variant Spec": "U7C U8A G9U U10G U11C C13A",
    "Observed Value": 1.2
  },
  {
    "Variant Spec": "U7A U8G G9U U10A U11G C12A",
    "Observed Value": 1.06
  },
  {
    "Variant Spec": "U7A U8C G9U U10G U11G C12U C13G",
    "Observed Value": 1.11
  },
  {
    "Variant Spec": "U7C G9U U10C U11C C12G C13U",
    "Observed Value": 1.02
  },
  {
    "Variant Spec": "U7G U8G U10A U11C C12G C13A",
    "Observed Value": 1.16
  },
  {
    "Variant Spec": "G9A U10A U11A C12U C13G",
    "Observed Value": 1.3
  },
  {
    "Variant Spec": "U7A U8A G9C U10A U11G C12A C13A",
    "Observed Value": 1.07
  },
  {
    "Variant Spec": "U8A G9A U11A C12G C13A",
    "Observed Value": 1.11
  },
  {
    "Variant Spec": "U7G U8A G9A U10C U11A C13A",
    "Observed Value": 1.08
  },
  {
    "Variant Spec": "U7G U8G G9U U10A U11G C12G",
    "Observed Value": 1.08
  },
  {
    "Variant Spec": "U7A U8A U10G U11G C13A",
    "Observed Value": 1.07
  },
  {
    "Variant Spec": "U11C C13G",
    "Observed Value": 1.07
  },
  {
    "Variant Spec": "U7C U8A G9A U10A U11G C12U C13U",
    "Observed Value": 1.22
  },
  {
    "Variant Spec": "U7G U8A G9C U10C C12A C13A",
    "Observed Value": 1.07
  },
  {
    "Variant Spec": "U7A U8C G9C U11C C13G",
    "Observed Value": 1.04
  },
  {
    "Variant Spec": "U7G U8G G9C U10A U11C C12A C13A",
    "Observed Value": 1.07
  },
  {
    "Variant Spec": "G9C U10G U11A C13A",
    "Observed Value": 1.08
  },
  {
    "Variant Spec": "U7C U8G U10C U11C C13U",
    "Observed Value": 1.11
  },
  {
    "Variant Spec": "U7C U10A U11G C13G",
    "Observed Value": 1.17
  },
  {
    "Variant Spec": "U8C G9U U11G C12A C13G",
    "Observed Value": 1.18
  },
  {
    "Variant Spec": "U7G U8C G9U U10G U11C C12U C13G",
    "Observed Value": 1.22
  },
  {
    "Variant Spec": "U7G U8C G9U U11G C13A",
    "Observed Value": 1.32
  },
  {
    "Variant Spec": "U7A G9A U10C U11A",
    "Observed Value": 1.27
  },
  {
    "Variant Spec": "U7G U8A U11G C12G C13A",
    "Observed Value": 1.16
  },
  {
    "Variant Spec": "U7C U8G G9C U10C U11C C13A",
    "Observed Value": 1.03
  },
  {
    "Variant Spec": "U7G U8G G9U U10G U11C C12A C13U",
    "Observed Value": 1.1
  },
  {
    "Variant Spec": "U7A U8G G9U U10A U11G",
    "Observed Value": 2.03
  },
  {
    "Variant Spec": "U8A G9U U10A U11A C13G",
    "Observed Value": 1.07
  },
  {
    "Variant Spec": "U7G U8G G9C U10C U11A C12U C13A",
    "Observed Value": 1.36
  },
  {
    "Variant Spec": "U7A U8C G9A U10G U11C C12G C13U",
    "Observed Value": 1.18
  },
  {
    "Variant Spec": "U8C U10G U11C C12U C13G",
    "Observed Value": 1.19
  },
  {
    "Variant Spec": "U7G U8C U10G U11C C13A",
    "Observed Value": 1.33
  },
  {
    "Variant Spec": "U7C U8A G9U U10A U11G C12G C13A",
    "Observed Value": 1.15
  },
  {
    "Variant Spec": "U8A G9U U10A U11C C12G C13A",
    "Observed Value": 1.14
  },
  {
    "Variant Spec": "U7C C13G",
    "Observed Value": 1.05
  },
  {
    "Variant Spec": "U7G U8G G9A U10C U11A",
    "Observed Value": 2.49
  },
  {
    "Variant Spec": "U7C U8C G9A U10A U11A C12G C13U",
    "Observed Value": 1.15
  },
  {
    "Variant Spec": "U7G G9C U10C U11G C12A C13U",
    "Observed Value": 1.08
  },
  {
    "Variant Spec": "U7C U8G C12A",
    "Observed Value": 1.63
  },
  {
    "Variant Spec": "U7C G9A U11A C12G C13G",
    "Observed Value": 1.19
  },
  {
    "Variant Spec": "U7G U8G G9A U10A C13U",
    "Observed Value": 1.37
  },
  {
    "Variant Spec": "U8G U10C C12G",
    "Observed Value": 1.49
  },
  {
    "Variant Spec": "U7A U8C G9C U10G U11G C13U",
    "Observed Value": 1.09
  },
  {
    "Variant Spec": "U8A G9C U10G U11G C12G C13U",
    "Observed Value": 1.31
  },
  {
    "Variant Spec": "U8A G9C U10A U11A C12U C13G",
    "Observed Value": 1.19
  },
  {
    "Variant Spec": "U7C U10A U11C C12A C13U",
    "Observed Value": 1.1
  },
  {
    "Variant Spec": "U7C G9U C13A",
    "Observed Value": 1.04
  },
  {
    "Variant Spec": "U7A U8C G9C U10G U11C C12U C13A",
    "Observed Value": 1.12
  },
  {
    "Variant Spec": "U7C U8G U10C U11C C12A",
    "Observed Value": 1.48
  },
  {
    "Variant Spec": "U7G U8C U10A U11A C12G C13U",
    "Observed Value": 1.26
  },
  {
    "Variant Spec": "U7C U8A G9A U10C U11G C12U C13G",
    "Observed Value": 1.27
  },
  {
    "Variant Spec": "U8A G9U U10A U11C C12A C13U",
    "Observed Value": 1.25
  },
  {
    "Variant Spec": "U7C G9A U10G U11A C12U C13A",
    "Observed Value": 1.05
  },
  {
    "Variant Spec": "U7C U8C U10G U11C C12G",
    "Observed Value": 1.4
  },
  {
    "Variant Spec": "U7C G9C U11C C12U C13G",
    "Observed Value": 1.03
  },
  {
    "Variant Spec": "U8G G9A U10C U11G C12A",
    "Observed Value": 1.06
  }
]
